A compilation of pKi values for UniProtKB P09871 from the published literature.
- target-or-test-system: UniProtKB P09871
- Sequence (P09871 whole entry): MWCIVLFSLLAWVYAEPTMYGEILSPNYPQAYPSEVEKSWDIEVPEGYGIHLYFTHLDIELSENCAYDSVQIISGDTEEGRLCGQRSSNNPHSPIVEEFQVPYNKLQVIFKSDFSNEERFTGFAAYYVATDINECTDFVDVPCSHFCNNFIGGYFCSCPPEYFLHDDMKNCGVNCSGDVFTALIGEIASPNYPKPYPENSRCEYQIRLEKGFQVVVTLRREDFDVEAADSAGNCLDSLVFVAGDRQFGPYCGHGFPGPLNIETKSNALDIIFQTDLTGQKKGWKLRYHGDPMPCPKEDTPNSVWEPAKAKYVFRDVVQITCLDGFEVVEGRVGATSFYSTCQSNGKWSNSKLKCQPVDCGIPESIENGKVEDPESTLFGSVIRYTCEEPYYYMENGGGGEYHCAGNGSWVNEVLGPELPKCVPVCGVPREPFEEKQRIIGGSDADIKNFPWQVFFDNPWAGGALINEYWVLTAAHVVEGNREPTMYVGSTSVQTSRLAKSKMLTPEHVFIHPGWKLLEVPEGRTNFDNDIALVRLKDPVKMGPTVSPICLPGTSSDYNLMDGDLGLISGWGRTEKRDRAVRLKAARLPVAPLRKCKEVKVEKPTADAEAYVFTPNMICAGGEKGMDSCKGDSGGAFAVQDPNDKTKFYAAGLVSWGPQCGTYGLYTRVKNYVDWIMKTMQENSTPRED
Would you please state pKi, meaning minus log10 of the concentration in mol/L, as a bare number?

INSERT INTO measurements (compound_structure_string, result_value) VALUES
  ('CSc1sc(C(=N)N)cc1S(=O)(=O)c1cc(Br)c2c(c1)ncn2Cc1cc(F)ccc1F', 8.00),
  ('CSc1sc(C(=N)N)cc1S(=O)(=O)c1cc(Br)c2ncn(CC=C(C)C)c2c1', 6.70),
  ('CSc1sc(C(=N)N)cc1S(=O)(=O)c1cc(Br)c2ncn(-c3ccccc3)c2c1', 6.74),
  ('CSc1sc(C(=N)N)cc1S(=O)(=O)c1cc(Br)c2c(c1)ncn2[C@@H](C)c1ccccc1', 6.48),
  ('Cc1sc(C(=N)N)cc1-c1nc(-c2ccccc2)cs1', 5.22);

input: Identify measured pKi corresponding to `COc1ccc(-c2cccc(S(=O)(=O)c3cc(C(=N)N)sc3SC)c2)cc1`
output: 6.46

input: Identify measured pKi corresponding to `CSc1sc(C(=N)N)cc1S(=O)(=O)c1cc(Cl)c2ncn(Cc3c(F)cccc3F)c2c1`
output: 7.00
